PROTOCOL SUMMARY: Pharmacokinetic parameters in rats
SETTINGS: rat, in vivo
ASSAY ENDPOINT: clearance
Record the result as number plus unit.

Record excerpt, results attached:
compound="CN(C(=O)C(C)(C)c1cc(C(F)(F)F)cc(C(F)(F)F)c1)c1cnccc1-c1ccccc1Cl [Ic]" assay_endpoint=clearance value="2.7 L/h/kg"
compound="Cc1ccccc1-c1cc(N2CCN(C)CC2)ncc1N(C)C(=O)C(C)(C)c1cc(C(F)(F)F)cc(C(F)(F)F)c1 [Ib]" assay_endpoint=clearance value="0.222 L/h/kg"

Kindly review the next compound as well.
Ask: Fill in the blank: the reported clearance of Cc1ccccc1-c1cc(N2CCOCC2)ncc1N(C)C(=O)C(C)(C)c1cc(C(F)(F)F)cc(C(F)(F)F)c1 [Ia] is ____.
Reply: 0.24 L/h/kg
